Origin of measurements: ChEMBL document CHEMBL3137667

Listed here are molecules together with their documented Hepatotoxicity (acute).
conditions: human, serum;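 note: acute human liver injury from clinical signs plus serum ALT or AST above 6 N or alkaline phosphatase above 1.7 N, covering cytolytic, cholestatic and mixed forms, value counts references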
MEASUREMENT_LABEL: Hepatotoxicity (acute)

1. Cn1nnnc1SCC1=C(C(=O)O)N2C(=O)[C@@H](NC(=O)[C@H](O)c3ccccc3)[C@H]2SC1 :: 2
2. Cc1ccc(S(=O)(=O)NC(=O)NN2CCCCCC2)cc1 [TOLAZAMIDE] :: 5
3. Cc1nc2ccc(CN(C)c3ccc(C(=O)N[C@@H](CCC(=O)O)C(=O)O)s3)cc2c(=O)[nH]1 :: 8
4. N=C(N)NCC1COc2ccccc2O1 (centres undefined) :: 2
5. NS(=O)(=O)c1cc2c(cc1Cl)N=CNS2(=O)=O [CHLOROTHIAZIDE] :: 5
6. Cc1ncc([N+](=O)[O-])n1CCO :: 10
7. CC1COc2c(N3CCN(C)CC3)c(F)cc3c(=O)c(C(=O)O)cn1c23 (centres undefined) :: 11
8. CCOC(=O)Nc1ccc(NCc2ccc(F)cc2)nc1N :: 0
9. CCOc1nc2cccc(C(=O)O)c2n1Cc1ccc(-c2ccccc2-c2nnn[nH]2)cc1 :: 2
